test system: SF-268 CNS; assay: NCI tumour cell line growth inhibition, 48 h
parameter measured: TGI

Entry "Clc1cc(OC23CC4CC(CC(C4)C2)C3)nc(Cl)n1" , TGI reported as > 100 µM

The measured TGI associated with "COc1cc(C(c2c(O)c3ccccc3oc2=O)c2c(O)c3ccccc3oc2=O)ccc1O" reads 45.4 µM

"CCCCCCCCCCC(=O)CC(=O)c1c(O)cccc1O" has a reported TGI of > 100 µM

According to the records, this compound CCOC(=O)C1=C(C)NC(=O)NC1c1ccc(N(CCCl)CCCl)cc1Cl (stereo unspecified) displays TGI of 28.8 µM

* * *

tested on: SF-295 CNS; experiment: NCI tumour cell line growth inhibition, 48 h
parameter measured: TGI

Below are worked cases with known answers.
compound=C[C@H]1[C@H](N2CCCC2)O[Si](C(C)(C)C)(C(C)(C)C)[C@@H]1C test_result="> 100 µM"
compound="COC(=O)C(Cc1c[nH]c2ccccc12)NP(=O)(O)OCC1OC(n2ccc(N)nc2=O)C(O)C1O (stereo not given)" test_result="> 100 µM"

Looking up "OCCCCC#Cc1ccccc1C#Cc1ccccn1" , I found its TGI recorded as 65.2 µM

TGI reading for "CCC(=O)Nc1ccc(NCC(=O)Nc2ccc(Cl)cc2)cc1" : > 100 µM

// sample "CCOC(=O)O/C(=C\c1ccc(OC)cc1)c1c(OC(=O)OCC)n(C(=O)OCC)c2ccccc12" , its TGI was > 100 µM

* * *

tested on: KM12 colon; assay: NCI tumour cell line growth inhibition, 48 h
Where a SMILES comes first, the peptide text is derived from it. [ ]: non-standard residue; d: D form.
Quick reference for TGI among some compounds

compound=Nc1n[nH]c2cccc(C#Cc3cccc(NC(=O)c4ccc(N5CCOCC5)c(C(F)(F)F)c4)c3)c12 subject_of_test="KM12 colon" test_result="2.91 µM"
compound=CCCCCCCCCCc1c2nc(c(CCCCCCCCCC)c3ccc([nH]3)c(CCCCCCCCCC)c3ccc([nH]3)c(CCCCCCCCCC)c3nc1C=C3)C=C2 subject_of_test="KM12 colon" test_result="> 100 µM"
compound=O=c1[nH]nc(-c2ccccc2)n1/N=C\CC/C=N\n1c(-c2ccccc2)n[nH]c1=O subject_of_test="KM12 colon" test_result="> 100 µM"
compound=CCCCCCCCCCC(=O)CC(=O)c1c(O)cccc1O subject_of_test="KM12 colon" test_result="> 100 µM"
compound="NC(N)=NCCC[C@H]1NC(=O)[C@@H](CCC(=O)O)NC(=O)[C@@H](CC(=O)O)NC(=O)[C@@H](CCC(=O)O)NC(=O)[C@H](Cc2c[nH]c3ccccc23)NC1=O (cyclo(W[dE][dD][dE][dR]))" subject_of_test="KM12 colon" test_result="> 7.5 µM"
compound="CCOC(=O)C1OC(=O)CC1C1(C(=O)OCC)C=CC(=O)O1 (stereo not drawn)" subject_of_test="KM12 colon" test_result="> 100 µM"
compound=CC(C)(CNC(=O)/C(Cl)=C(/Cl)C(=O)O)CNC(=O)/C(Cl)=C(/Cl)C(=O)O subject_of_test="KM12 colon" test_result="> 100 µM"

# ---- query compound ----
Value (TGI, KM12 colon) for record "COc1cc(C(c2c(O)c3ccccc3oc2=O)c2c(O)c3ccccc3oc2=O)ccc1O" = 87.1 µM

* * *

system: TK-10 renal; assay: NCI tumour cell line growth inhibition, 48 h
# TGI listing for each entry below

Please review the following examples before continuing.
compound=COc1cc2c(/C=C3/C(=O)Nc4c3ccc3ccccc43)c(Cl)n(C)c2cc1C subject_of_test="TK-10 renal" test_result="17.3 µM"
compound=CCOc1cc(F)c([N+](=O)[O-])cc1[N+](=O)[O-] subject_of_test="TK-10 renal" test_result="10.1 µM"
compound=O=c1[nH]c(=O)n(COCCOCc2ccccc2)cc1Nc1ccccc1 subject_of_test="TK-10 renal" test_result="> 100 µM"
compound=Cc1ccc(-n2c(O)c(C=N)c(=O)n(-c3ccc(C)cc3)c2=O)cc1 subject_of_test="TK-10 renal" test_result="> 100 µM"
compound=CCO/C(O)=C(/C(=N)N1CCOCC1)C(=O)Nc1ccc(Cl)cc1 subject_of_test="TK-10 renal" test_result="> 100 µM"
compound=CCCCCCCCCCC(=O)CC(=O)c1c(O)cccc1O subject_of_test="TK-10 renal" test_result="> 100 µM"

Short answer for "COc1ccc2c(c1)/C(=N/OC(C)=O)c1c-2c(Nc2cccc(/C(C)=N/OC(C)=O)c2)nc2ccccc12" : TGI was > 100 µM

* * *

Item-by-item account of TGI
system: SNB-75 CNS; assay: NCI tumour cell line growth inhibition, 48 h

compound=CC(C)(C)/C(O)=C\c1nc2ccc(C(F)(F)F)cc2[nH]c1=O parameter_measured=TGI test_result="> 100 µM"
compound=Cc1ncc([N+](=O)[O-])n1CCn1ccnc1[N+](=O)[O-] parameter_measured=TGI test_result="> 100 µM"
compound=c1ccc2c(c1)c1c(n2CCOCCCN2CCCCC2)CCCC1 parameter_measured=TGI test_result="38.7 µM"

TGI measured on CC#CC(O)(C(=O)OC1CCC2CCC1N2C)C1CCCC1 (stereo unspecified) = > 100 µM

TGI in this record for "COc1cc(C(c2c(O)c3ccccc3oc2=O)c2c(O)c3ccccc3oc2=O)ccc1O" : 66.1 µM

get_value(item= "c1csc(-c2cc(-c3ccsc3)c(-c3ccsc3)s2)c1" , readout=TGI) returns > 100 µM

* * *

system: UACC-62 melanoma; experiment: NCI tumour cell line growth inhibition, 48 h
parameter measured: TGI

Example entries begin here.
compound=COc1ccc2c(c1)/C(=N/OC(C)=O)c1c-2c(Nc2cccc(/C(C)=N/OC(C)=O)c2)nc2ccccc12 parameter_measured=TGI test_result="> 100 µM"
compound=O=C(/C=C/c1ccc2ccccc2c1)NCc1ccc(C(=O)NCc2ccccc2)cc1 parameter_measured=TGI test_result="> 100 µM"
compound=OCCCCC#Cc1ccccc1C#Cc1ccccn1 parameter_measured=TGI test_result="> 100 µM"
compound=Cc1ccc(S(=O)(=O)c2ccccc2)cc1 parameter_measured=TGI test_result="> 100 µM"
compound="CCOC(=O)C1OC(=O)CC1C1(C(=O)OCC)C=CC(=O)O1 (stereo not drawn)" parameter_measured=TGI test_result="> 100 µM"

Value of TGI reported for the compound COc1cc2c(c(O)c1OC)C(=O)C1CCC(=O)N1C2c1cccc2ccccc12 (stereo not drawn) is > 100 µM

Record summary for "Cc1cn(CCCC2=NCCCN2)c(=O)[nH]c1=O" : reported TGI = > 100 µM

"CCOc1ccc([Se][Se]c2ccc(OCC)cc2)cc1" has a reported TGI of > 100 µM

NC(CCC(=O)Nc1ccc(O)cc1)C(=O)O (stereo not drawn) has a reported TGI of > 100 µM

For this compound ( "CCNCCCNc1c2ccccc2nc2ccccc12" ), measured TGI is 1.62 µM

# TGI (compound: "OCCCC(O)(c1ccccc1)c1ccccc1" ) is > 100 µM

Please fill in: TGI reported for "COc1cc(Nc2ccnc(NCCNc3ccnc4cc(Cl)ccc34)n2)cc(OC)c1" = 3.08 µM

* * *

tested on: MCF7 breast; assay: NCI tumour cell line growth inhibition, 48 h
parameter measured: TGI (µM)
Please reply with the bare figure in µM and do not write the unit itself.

Look over these answered cases.
compound="COc1ccc(C(C)c2cc3c(cc2O)OCO3)cc1 (stereo not given)" unit_name=µM test_result=30.8
compound=COc1ccc(/C(C)=C(\c2ccc(Cl)cc2)c2ccc(OCCN3CCCCC3)cc2)cc1 unit_name=µM test_result=5.71
compound=COc1cc(-c2nccn2-c2ccc3ccccc3c2)cc(OC)c1OC unit_name=µM test_result=15.8
compound=CC(C)(C)c1ccc(O)c(CN(Cc2c(O)ccc3ccccc23)C2CCCCC2)c1 unit_name=µM test_result=31.9
compound="CC1CCC2C(C)(C)CC3(C)CCC1C23O (stereo not given)" unit_name=µM test_result=29.3
compound="Clc1ccc(C(Cn2ccnc2)OCc2ccsc2Cl)c(Cl)c1 (stereo not given)" unit_name=µM test_result=14.4
compound="O=C(C1OC1c1ccc(F)cc1)C12CC3CC(CC(C3)C1)C2 (stereo not given)" unit_name=µM test_result=95.4

Now for another entry.
get_value(item= "Oc1c(Br)cc(Br)c2ccc(Cn3cc(-c4ccc(C(F)(F)F)cc4)nn3)nc12" , readout=TGI) returns 2.36

* * *

test system: SK-MEL-28 melanoma; assay: NCI tumour cell line growth inhibition, 48 h
parameter measured: TGI

molecule=O=C(Nc1ccc(Cl)cc1)c1cc2c(cc1Cl)SC(NNCCO)=NS2(=O)=O test_result="> 100 µM"
molecule="CCOC(=O)[C@H]1O[C@@H]1C(=O)NC(CC(C)C)C(=O)NCCC(C)C (some centres not stated)" test_result="> 100 µM"
molecule=CN(CCCNCc1ccccn1)Cc1ccccc1O test_result="> 100 µM"
molecule=CCOC(=O)CCc1cccc2c1oc1c(CCNC(=O)OCC3c4ccccc4-c4ccccc43)cccc12 test_result="> 100 µM"
molecule="COc1ccc(C(=O)N2c3ccccc3N(C)n3cccc3C2CC(=O)O)cc1 (configuration not stated)" test_result="> 100 µM"

// sample "C#Cc1cc(-c2nc3ccccc3s2)ccc1N" , its TGI was 35.6 µM

// "c1ccc2c(c1)c1c(n2CCOCCCN2CCCCC2)CCCC1" : TGI value = 38.5 µM

Measured TGI, COC(=O)C(Cc1c[nH]c2ccccc12)NP(=O)(O)OCC1OC(n2ccc(N)nc2=O)C(O)C1O (configuration not stated) : > 100 µM
